I'd appreciate it if you could supply ΔH values for the items below.
Target: T1, γHV68 M11 residues 1-136 (murine γHV68), P89884
T1 chain: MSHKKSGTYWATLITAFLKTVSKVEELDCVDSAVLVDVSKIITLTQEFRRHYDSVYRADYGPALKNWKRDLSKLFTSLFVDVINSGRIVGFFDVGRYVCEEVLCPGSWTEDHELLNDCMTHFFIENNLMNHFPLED
Experiment: ITC, 25 °C
Provide the reading as a plain figure in kcal/mol.

Exam item: Item GSGTMENLSRRLKVTGDLFDIMSGQT (modifications not checked) [Beclin 1 BH3D peptide, wild type] has what recorded ΔH?
Marked response: -17

Exam item: So what's the measured ΔH for this one? GSGTMENASRRLKVTGDLFDIMSGQT (modifications not checked) [Beclin 1 BH3D-derived peptide L112A]
Marked response: -11.3

Exam item: # ΔH lookup, item GSGTMENLSRRLKVTEDLFDIMSGQT (modifications not checked) [Beclin 1 BH3D-derived peptide G120E]
Marked response: -12.5

Exam item: If you can, please state the reported ΔH value of GSGTMENLSRRAKVTGDLFDIMSGQT (modifications not checked) [Beclin 1 BH3D-derived peptide L116A] .
Marked response: -8.7

Exam item: Fill in the blank: the reported ΔH of GSGTMENLSRRLKVTGDLADIMSGQT (modifications not checked) [Beclin 1 BH3D-derived peptide F123A] is ____.
Marked response: -14.2

Exam item: # input binder: GSGTMENLSRRLKVTEALFDIMSGQT (modifications not checked) [Beclin 1 BH3D-derived G120E+D121A double mutant peptide] ; wanted: its ΔH
Marked response: -14.9

Exam item: Give its ΔH value. Item: GSGTMENLSRRLAVTGDLFDIMSGQT (modifications not checked) [Beclin 1 BH3D-derived peptide K117A]
Marked response: -16.5
